Value source: patent US20220112291A1

molecular target: human CD1a expressed on cells (human, UniProt P06126 17-327); assay: cell-based or functional assay
Sequence (P06126 17-327): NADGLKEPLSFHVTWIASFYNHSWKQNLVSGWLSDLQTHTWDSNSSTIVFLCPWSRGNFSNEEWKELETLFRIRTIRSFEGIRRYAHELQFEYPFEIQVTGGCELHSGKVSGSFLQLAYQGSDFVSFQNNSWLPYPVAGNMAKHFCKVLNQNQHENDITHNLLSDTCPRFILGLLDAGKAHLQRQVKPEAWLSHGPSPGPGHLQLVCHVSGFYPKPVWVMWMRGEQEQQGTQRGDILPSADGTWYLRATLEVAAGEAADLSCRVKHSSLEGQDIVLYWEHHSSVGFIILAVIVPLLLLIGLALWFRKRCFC
parameter.measured: Inhibition of CD69 expression, IC50 (pM)

[[record]]
binder = "Ab559 (antibody, human IgG1, kappa, V domains shown, Optimized variant of Ab138; human IgG1 effector null / kappa; HC with or without terminal lysine) VH: EVQLVESGGGLVQPGGSLRLSCAASGFTFTDHYMHWVRQAPGKGLEWVAFIRNKAGGYTTESNPAVKGRFTISRDNAKNSLYLQMNSLRAEDTAVYYCARETTTIPTGWFAYWGQGTLVTVSS VL: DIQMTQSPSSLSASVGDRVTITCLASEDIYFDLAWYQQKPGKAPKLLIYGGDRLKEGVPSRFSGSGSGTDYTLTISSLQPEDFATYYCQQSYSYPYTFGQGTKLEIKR"
recorded_measurement = 1290

[[record]]
binder = "Ab609 (antibody, human IgG1, kappa, V domains shown, Optimized variant of Ab138; human IgG1 effector null / kappa; HC with or without terminal lysine) VH: EVQLVESGGGLVQPGGSLRLSCAASGFTFEDHYMHWVRQAPGKGLEWVAHTRDKAGGYTTESNPAVKGRFTISRDNAKNSLYLQMNSLRAEDTAVYYCARETTRIPTGWFAYWGQGTLVTVSS VL: DIQMTQSPSSLSASVGDRVTITCLASEDIYFDLAWYQQKPGKAPKLLIYGGDRLKEGVPSRFSGSGSGTDYTLTISSLQPEDFATYYCQQSESYPYTFGQGTKLEIKR"
recorded_measurement = 390

[[record]]
binder = "Ab616 (antibody, human IgG1, kappa, V domains shown, Optimized variant of Ab138; human IgG1 effector null / kappa; HC with or without terminal lysine) VH: EVQLVESGGGLVQPGGSLRLSCAASGFTFEDHYMHWVRQAPGKGLEWVGHISGSAGGYTTESNPAVKGRFTISRDNAKNSLYLQMNSLRAEDTAVYYCARETTRIPTGWFAYWGQGTLVTVSS VL: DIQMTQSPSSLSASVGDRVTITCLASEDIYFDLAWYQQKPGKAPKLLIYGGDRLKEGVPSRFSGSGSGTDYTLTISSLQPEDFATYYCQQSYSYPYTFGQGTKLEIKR"
recorded_measurement = 410

